These measurements were taken from ChEMBL document CHEMBL3763083.

Assay Protocol: Cmax in rat plasma at 50 mg/kg dosed via oral gavage
Assay type: ADME, organism-based
Set-up: dose 50 mg/kg, route oral
Value Type: Cmax (nM)
Write the number in nM without appending the unit.

Prompt: Answer with the recorded Cmax of `C[N+](C)(C)CCO.O=C([O-])c1cc(/N=N/c2ccc(S(=O)(=O)Nc3ccccn3)cc2)ccc1O` only.
Completion: 2360

====

Assay Protocol: AUC(infinity) in rat at 50 mg/kg dosed via oral gavage
Assay type: ADME, organism-based
Set-up: dose 50 mg/kg, route oral, time infinity
Condition: in vivo
Value Type: AUC(0-inf) (µM·h)
Express it in µM·h; write the number only.

Prompt: Hello, please tell me recorded AUC(0-inf) for this one: `C[N+](C)(C)CCO.O=C([O-])c1cc(/N=N/c2ccc(S(=O)(=O)Nc3ccccn3)cc2)ccc1O`
Completion: 9.34
